# ASSAY SYSTEM: protein farnesyltransferase (Rattus norvegicus, UniProt Q02293+Q04631)
# Construct: The enzyme is purified according to Reiss, Y., et al., Cell, 62: 81-88 (1990), utilizing steps one through three; from tissue; host or cells: rat brain
# TEST NAME: Inhibition of farnesyltransferase (scintillation proximity assay, rat brain enzyme, biotin-K Ras B fragment substrate)
# Type: biochemical
# EXPERIMENTAL SETUP: 1 × 10^-7 M (Table 3)
MEASURED ENDPOINT: % inhibition of farnesyltransferase at 1 × 10^-7 M (%)

CSCC[C@H](NC(=O)c1ccc(COCc2cnc(-c3cccc(Cl)c3)o2)cc1-c1ccccc1C)C(=O)[O-].[Li+] ... 87
CSCC[C@H](NC(=O)c1ccc(COCCCCc2ccccc2)cc1-c1ccccc1C)C(=O)O ... 92
CSCC[C@H](NC(=O)c1ccc(CSc2ccccc2C(C)C)cc1-c1ccccc1C)C(=O)O ... 83
CCSC[C@H](CC1CCCCC1)N(Cc1ccc(C(=O)N[C@@H](CCSC)C(=O)O)c(-c2ccccc2C)c1)C(C)=O ... 79
CSCC[C@H](NC(=O)c1ccc(CSc2ncnc3[nH]ncc23)cc1-c1ccccc1C)C(=O)O ... 84
CCCCN(CCCC)C(=O)CN(C)Cc1ccc(C(=O)N[C@@H](CCSC)C(=O)O)c(-c2ccccc2C)c1 ... 89
CSCC[C@H](NC(=O)c1ccc(COCCc2cccc3ccccc23)cc1-c1ccccc1C)C(=O)[O-].[Li+] ... 93
